Values were extracted from ChEMBL document CHEMBL1649104.

# assay.procedure: Mean residence time in Beagle dog at 2 mg/kg, iv or 3 mg/kg, po
# Format: ADME, organism-based, Canis lupus familiaris
# condition.description: in vivo
metric.name: MRT
Just the number plus its unit, please.

Task: Input O=C(O)C1CN(Cc2ccc(-c3cc4cc(Cc5ccccc5)ccc4o3)c(F)c2)C1 , output reported MRT.
Result: 9 h

====

# assay.procedure: Terminal half life in Beagle dog at 2 mg/kg, iv or 3 mg/kg, po
# Assay type: ADME, organism-based, Canis lupus familiaris
# condition.description: in vivo, read-out: beta t1/2 (converted)
metric.name: half-life (h)
# value in h; strip the unit string

Task: Input O=C(O)C1CN(Cc2ccc(-c3cc4cc(Cc5ccccc5)ccc4o3)c(F)c2)C1 , output reported half-life.
Result: 21.1

====

# assay.procedure: Oral bioavailability in Beagle dog 3 mg/kg
# Assay type: ADME, organism-based, Canis lupus familiaris
# condition.description: in vivo
metric.name: bioavailability (%)
# value in %; strip the unit string

Task: Input O=C(O)C1CN(Cc2ccc(-c3cc4cc(Cc5ccccc5)ccc4o3)c(F)c2)C1 , output reported bioavailability.
Result: 51

====

# assay.procedure: Clearance in cynomolgus monkey at 1 mg/kg, iv or 5 mg/kg, po
# Format: ADME, organism-based, Macaca fascicularis
# condition.description: in vivo
metric.name: clearance (mL/min/kg)
# value in mL/min/kg; strip the unit string

Task: Input O=C(O)C1CN(Cc2ccc(-c3cc4cc(Cc5ccccc5)ccc4o3)c(F)c2)C1 , output reported clearance.
Result: 5.15

====

# assay.procedure: Toxicity in rat assessed as No observed adverse effect level by 4 day repeated dose toxicity study
# Assay type: organism-based
# condition.description: in vivo
metric.name: NOAEL at 96 h (mg/kg)
# value in mg/kg; strip the unit string

Task: Input O=C(O)C1CN(Cc2ccc(-c3cc4cc(Cc5ccccc5)ccc4o3)c(F)c2)C1 , output reported NOAEL at 96 h.
Result: 20

====

# tgt: UniProt:P21453
# Sequence (P21453 whole entry): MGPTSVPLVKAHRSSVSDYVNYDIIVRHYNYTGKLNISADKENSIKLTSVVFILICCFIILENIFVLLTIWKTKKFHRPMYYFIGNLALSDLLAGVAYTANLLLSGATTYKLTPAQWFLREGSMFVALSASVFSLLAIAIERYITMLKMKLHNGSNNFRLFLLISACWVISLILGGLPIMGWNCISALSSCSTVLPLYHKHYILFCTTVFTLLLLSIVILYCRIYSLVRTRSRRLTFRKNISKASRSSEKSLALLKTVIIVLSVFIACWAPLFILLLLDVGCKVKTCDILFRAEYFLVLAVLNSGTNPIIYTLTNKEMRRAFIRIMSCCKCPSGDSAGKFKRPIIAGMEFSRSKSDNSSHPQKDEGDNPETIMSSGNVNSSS
# assay.procedure: Induction of human GFP-tagged chimeric S1P1R internalization in human U2Os cells by fluorescence microscopy
# Assay type: cell-based
Measured log10(EC50) values are reported for all entries that follow.
Please be aware that the numbers have been log10-transformed from EC50 in nM.

Some entries whose results are on file:
query.smiles	log10(EC50)
O=C(O)C1CN(Cc2ccc(-c3cc4cc(C5CCCCC5)ccc4o3)c(F)c2)C1	1.68
CC(C)Cc1ccc2oc(-c3ccc(CN4CC(C(=O)O)C4)cc3)cc2c1	2.18

Task: Input CCCCOc1ccc2oc(-c3ccc(CN4CC(C(=O)O)C4)cc3OC)cc2c1 , output reported log10(EC50).
Result: 2.81

Task: Input O=C(O)C1CN(Cc2ccc(-c3cc4cc(Cc5ccccc5)ccc4o3)cc2F)C1 , output reported log10(EC50).
Result: 2.40

Task: Input O=C(O)C1CN(Cc2ccc(-c3cc4cc(CCc5ccccc5)ccc4o3)cc2)C1 , output reported log10(EC50).
Result: 2.55

Task: Input CCCCOc1ccc2cc(-c3ccc(CN4CC(C(=O)O)C4)cc3)oc2c1 , output reported log10(EC50).
Result: 3.36

Task: Input O=C(O)C1CN(Cc2ccc(-c3cc4cc(-c5cccnc5)ccc4o3)cc2)C1 , output reported log10(EC50).
Result: 3.70

Task: Input O=C(O)C1CN(Cc2ccc(-c3cc4cc(C5CCCCC5)ccc4o3)nc2)C1 , output reported log10(EC50).
Result: 2.63

Task: Input O=C(O)C1CN(Cc2ccc(-c3cc4cc(C5CCCCC5)ccc4o3)cc2)C1 , output reported log10(EC50).
Result: 2.66

Task: Input CCCCc1ccc2oc(-c3ccc(CN4CC(C(=O)O)C4)cc3)cc2c1 , output reported log10(EC50).
Result: 3.39
